- Tested system: Anti-CD28 Fab (SEQ ID NOs: 696, 697)
- Sequence (VH, as listed by the source, chain 1 of 2): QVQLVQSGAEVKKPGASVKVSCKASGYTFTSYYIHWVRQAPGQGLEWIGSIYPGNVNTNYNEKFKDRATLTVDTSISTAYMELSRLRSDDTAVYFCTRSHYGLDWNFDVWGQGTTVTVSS
- Sequence (VL, as listed by the source, chain 2 of 2): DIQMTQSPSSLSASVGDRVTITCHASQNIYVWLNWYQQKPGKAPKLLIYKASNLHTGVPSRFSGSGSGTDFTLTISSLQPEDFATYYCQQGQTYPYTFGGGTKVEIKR
- Test name: phage binding ELISA; biotinylated anti-CD28 Fab on neutravidin plate, clonal phage, anti-M13 HRP detection
Property label: Anti-CD28 Fab signal (phage binding ELISA)

For the binder shown here, LCEEFFHYSWPLCL (Tested as clonal phage supernatant) [Phage-1637 (peptide-92 library clone, SEQ ID NO: 1933)] , give the reported Anti-CD28 Fab signal (phage binding ELISA).
1.21

Same lookup for PCSDGVAYPWPYCV (Tested as clonal phage supernatant) [Phage-1638 (peptide-92 library clone, SEQ ID NO: 1934)] , please.
1.2

Same lookup for LCAAGATYPWPDCV (Tested as clonal phage supernatant) [Phage-1635 (peptide-92 library clone, SEQ ID NO: 1931)] , please.
1.21

Same lookup for TCSAGATYSWPSCF (Tested as clonal phage supernatant) [Phage-1634 (peptide-92 library clone, SEQ ID NO: 1930)] , please.
1.21
